test: gradient 5% acetonitrile 3 min, to 50% in 2 min, to 85% in 15 min, held 3 min, 100 µL/min; details: column: Zorbax Extend-C18 2.1 x 50 mm; eluents: water / acetonitrile, 0.1% formic acid
The following molecules are listed with their measured RP-LC retention time values.
Measurement label: RP-LC retention time (s)

- Molecule: "CN1c2cc(C(=O)NCc3ccccc3Br)ccc2C(=O)N2CCCCC21 (stereo not given)"
  Recorded measurement: 860
- Molecule: "C#Cc1cccc(Nc2ncnc3cc4c(cc23)OCCOCCOCCO4)c1"
  Recorded measurement: 674
- Molecule: "CCOc1cc(Cl)c(S(=O)(=O)NCc2ccccn2)cc1Cl"
  Recorded measurement: 715
- Molecule: "O=C(Cc1nnc2c(-c3nc(C4CC4)no3)cccn12)N1CCOCC1"
  Recorded measurement: 609
- Molecule: "Cc1ccc(N2C(=O)CCS2(=O)=O)cc1S(=O)(=O)Nc1cccc2cccnc12"
  Recorded measurement: 808
- Molecule: "CCN1C(=O)CN(C(=O)c2ccoc2)CC12CCOCC2"
  Recorded measurement: 609
- Molecule: "O=C1CCCN1c1ccc(Cn2cccc(S(=O)(=O)N3CCCC3)c2=O)cc1"
  Recorded measurement: 696
- Molecule: "CCc1nnc(-c2ccc3ccn(CC(=O)Nc4ccc(Cl)cn4)c3c2)o1"
  Recorded measurement: 843
- Molecule: "COC(=O)c1sccc1S(=O)(=O)N1CCC(C(N)=O)(N2CCCCC2)CC1"
  Recorded measurement: 580
- Molecule: "Cc1ccccc1S(=O)(=O)Nc1ccc(C(=O)N2CCCC2C(=O)NCCC(C)C)cc1 (stereo not given)"
  Recorded measurement: 807

* * *

experiment: gradient 5% acetonitrile 3 min, to 50% in 2 min, to 85% in 15 min, held 3 min, 100 µL/min; settings: column: Zorbax Extend-C18 2.1 x 50 mm; eluents: water / acetonitrile, 0.1% formic acid
RP-LC retention time values, listed per item

- Molecule: "CC(C)(Oc1ccc(Cl)cc1)C(=O)NCC1CCN(C(=O)Nc2ccc(F)cc2)CC1"
  RP-LC retention time (s): 874
- Molecule: "O=C1CN(Cc2ccccc2)C(=O)C(Cc2ccccc2)N1 (stereo not given)"
  RP-LC retention time (s): 656
- Molecule: "Cc1cccc(Sc2nccnc2N2CCCC(C(=O)NCc3ccc(C)o3)C2)c1 (stereo not given)"
  RP-LC retention time (s): 1060
- Molecule: "O=C(C1=CN(c2cccc(C(F)(F)F)c2)c2cc(F)ccc2S1(=O)=O)N1CCOCC1"
  RP-LC retention time (s): 858
- Molecule: "CCCNC(=O)c1cc(=O)[nH]c2c(Cl)cccc12"
  RP-LC retention time (s): 1080

* * *

assay: gradient 5% acetonitrile 3 min, to 50% in 2 min, to 85% in 15 min, held 3 min, 100 µL/min; conditions: column: Zorbax Extend-C18 2.1 x 50 mm; eluents: water / acetonitrile, 0.1% formic acid

- Compound: "O=C(NCC1CCN(C(=O)c2cc3ccccc3o2)CC1)Nc1c(F)cccc1F"
  RP-LC retention time: "729 s"
- Compound: "O=C(Cn1ncc2c3ccccc3n(Cc3ccccc3)c2c1=O)N1CCN(c2ccccn2)CC1"
  RP-LC retention time: "693 s"
- Compound: "CSc1ccc(-c2noc(Cn3c(=O)n(-c4ccccc4F)c(=O)c4sccc43)n2)cc1"
  RP-LC retention time: "1040 s"
- Compound: "COCCn1nc2n(c1=O)CCC1(CC2)CCN(C(=O)C2CCCCCC2)CC1"
  RP-LC retention time: "710 s"
- Compound: "CCCS(=O)(=O)N1CC(=O)N(c2cccc(Cl)c2)C(C)(C(=O)NC2CCCCC2)C1 (stereo not given)"
  RP-LC retention time: "955 s"
- Compound: "CN(CCOc1ccc(CC2SC(=O)NC2=O)cc1)c1ccccn1 (stereo not given)"
  RP-LC retention time: "628 s"
- Compound: "Cc1ccn(-c2ccc(C(=O)NC(C)C)cn2)n1"
  RP-LC retention time: "715 s"
- Compound: "O=C(NC1CCCC1)NC1CCN(C(=O)C2CC2)C1 (stereo not given)"
  RP-LC retention time: "631 s"
- Compound: "O=[N+]([O-])c1ccc(CSc2nc3ccccc3o2)cc1"
  RP-LC retention time: "1020 s"
- Compound: "Cc1ncn(CC(=O)Nc2ccc(F)cc2F)c(=O)c1C"
  RP-LC retention time: "642 s"
